- Assayed System: CREB-binding protein (Homo sapiens)
- Procedure Details: Binding affinity to human CREBBP expressed in Escherichia coli BL21(DE3)-R3-pRARE2 assessed as change in melting temperature at 25 uM by SYPRO orange based protein stability shift assay
I'd appreciate it if you could supply ΔTm values for the items below.
Express the result in °C but write the number alone.

**Query** Provide only the value of recorded ΔTm for "Cc1noc(C)c1-c1cc(NC(=O)CCCCCC(=O)NO)cc(C(=O)c2ccccc2)c1"
**Result** 2.32

**Query** Provide only the value of recorded ΔTm for "Cc1noc(C)c1-c1cc(OCCCCC(=O)NO)cc(C(=O)c2ccccc2)c1"
**Result** -0.01

**Query** Provide only the value of recorded ΔTm for Cc1noc(C)c1-c1cc(OCCCCCCC(=O)NO)cc(C(O)c2ccccc2)c1 (centres undefined)
**Result** 4.03

**Query** Provide only the value of recorded ΔTm for "Cc1noc(C)c1-c1cc(NC(=O)CCCCC(=O)NO)cc(C(=O)c2ccccc2)c1"
**Result** 2.05

**Query** Provide only the value of recorded ΔTm for "Cc1noc(C)c1-c1cc(OCCCCCCC(=O)NO)cc(C(=O)c2ccccc2)c1"
**Result** 2.13

**Query** Provide only the value of recorded ΔTm for "Cc1noc(C)c1-c1cc(NC(=O)CCCCCCC(=O)NO)cc(C(=O)c2ccccc2)c1"
**Result** 3.24

**Query** Provide only the value of recorded ΔTm for "Cc1noc(C)c1-c1cc(OCCCCCC(=O)NO)cc(C(=O)c2ccccc2)c1"
**Result** 1.69

**Query** Provide only the value of recorded ΔTm for "Cc1noc(C)c1-c1cc(OCCCCCCCC(=O)NO)cc(C(=O)c2ccccc2)c1"
**Result** 0.65

**Query** Provide only the value of recorded ΔTm for "Cc1noc(C)c1-c1cccc(NC(=O)CCCCCC(=O)NO)c1"
**Result** 0.73

* * *

As an illustration, consider measured ΔTm for compounds on Bromodomain-containing protein 4 (Homo sapiens, UniProt O60885).

**Query** Provide only the value of recorded ΔTm for "Cc1noc(C)c1-c1cc(OCCCCCC(=O)NO)cc(C(=O)c2ccccc2)c1"
**Result** 7.54 °C

**Query** Provide only the value of recorded ΔTm for "Cc1noc(C)c1-c1cc(OCCCCCCCC(=O)NO)cc(C(=O)c2ccccc2)c1"
**Result** 4.91 °C

**Query** Provide only the value of recorded ΔTm for "Cc1noc(C)c1-c1cc(NC(=O)CCCCC(=O)NO)cc(C(=O)c2ccccc2)c1"
**Result** 6.21 °C

**Query** Provide only the value of recorded ΔTm for "Cc1noc(C)c1-c1cc(NC(=O)CCCCCCC(=O)NO)cc(C(=O)c2ccccc2)c1"
**Result** 7.49 °C

**Query** Provide only the value of recorded ΔTm for Cc1noc(C)c1-c1cc(OCCCCCCC(=O)NO)cc(C(O)c2ccccc2)c1 (centres undefined)
**Result** 7.53 °C

**Query** Provide only the value of recorded ΔTm for "Cc1noc(C)c1-c1cc(OCCCCC(=O)NO)cc(C(=O)c2ccccc2)c1"
**Result** 5.89 °C

**Query** Provide only the value of recorded ΔTm for "Cc1noc(C)c1-c1cc(OCCCCCCC(=O)NO)cc(C(=O)c2ccccc2)c1"
**Result** 7.41 °C

**Query** Provide only the value of recorded ΔTm for "Cc1noc(C)c1-c1cc(NC(=O)CCCCCC(=O)NO)cc(C(=O)c2ccccc2)c1"
**Result** 6.37 °C

**Query** Provide only the value of recorded ΔTm for "Cc1noc(C)c1-c1cccc(NC(=O)CCCCCC(=O)NO)c1"
**Result** 3.58 °C

Recorded values, source ChEMBL document CHEMBL3817837.
